- experiment-notes: Cell viability by MTT reduction
- Assay type: cell-based
- measurement-setup: mouse; at a concentration of 100 μM; RAW 264.7 cells; MTT reduction; mean ± SD of three independent experiments

>  <molecule>
CC(C)(O)[C@@H]1CC[C@](C)([C@H]2[C@@H](O)C[C@@]3(C)[C@@H]4C[C@H](O[C@@H]5O[C@H](CO)[C@@H](O)[C@H](O)[C@H]5O)[C@H]5C(C)(C)[C@@H](O[C@@H]6OC[C@@H](O)[C@H](O)[C@H]6O)CC[C@@]56C[C@@]46CC[C@]23C)O1 [Compound 5, astragaloside IV]

>  <units-text>
%

>  <viability at 8 h, 100 µM>
94.4

$$$$
>  <molecule>
O=C(O)/C=C/c1ccc(O)c(O)c1 [Caffeic acid, reference compound]

>  <units-text>
%

>  <viability at 8 h, 100 µM>
82.2

$$$$

These entries and their values trace back to paper PMC6269660.
